molecular target: MMP-13CD (Homo sapiens)
Give IC50 for every item shown.
Answers are plain numbers, in nM.

# Compound, Quantity Unit, IC50
rows = [
    ("CC1(C)SCCN(S(=O)(=O)c2ccc3c4c(oc3c2)CCCC4)[C@H]1C(=O)O", "nM", 1310),
]

Now for another entry.
// IC50 value for CC1(C)C(C(=O)O)N(S(=O)(=O)c2ccc3c4c(oc3c2)CCCCC4)CCS1(=O)=O (centres unmarked) : 2100

---

Biological target: MMP-1FL (Homo sapiens, UniProt P03956)
Sequence (P03956 100-469): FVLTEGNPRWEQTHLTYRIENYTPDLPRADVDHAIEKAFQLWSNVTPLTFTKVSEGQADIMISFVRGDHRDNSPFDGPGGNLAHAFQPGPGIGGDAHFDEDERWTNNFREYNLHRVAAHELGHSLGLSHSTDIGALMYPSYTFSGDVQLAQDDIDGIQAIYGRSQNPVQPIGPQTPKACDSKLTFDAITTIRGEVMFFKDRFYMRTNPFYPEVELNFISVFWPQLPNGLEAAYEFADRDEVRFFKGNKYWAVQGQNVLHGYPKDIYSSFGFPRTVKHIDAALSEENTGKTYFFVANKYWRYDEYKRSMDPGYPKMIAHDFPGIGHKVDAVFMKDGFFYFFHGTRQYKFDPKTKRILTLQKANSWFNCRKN
Give IC50 for every item shown.

# Molecule, Target Desc, Result
measured = [
    ("CC1(C)C(C(=O)O)N(S(=O)(=O)c2ccc3c4c(oc3c2)CCCCC4)CCS1(=O)=O (centres unmarked) [Example 6]", "MMP-1FL (Homo sapiens, UniProt P03956)", "40 µM"),
]

Now for another entry.
// IC50 value for CC1(C)SCCN(S(=O)(=O)c2ccc3c4c(oc3c2)CCCC4)[C@H]1C(=O)NO [Example 4] : 0.069 µM
